Where these numbers come from: PubChem BioAssay AID1963826

# System: 926638-142-R-J1-PDC complex spheroid viability
# ASSAY COMMENT: Anticancer human tumor 926638-142-R-J1-PDC patient-derived endometrial carcinoma cell line growth inhibition [POLQ]
# STUDY CONDITIONS: second compound 1 µM; first compound 0.316 µM; active compounds read low
Labelling field: enter Yes if recorded viability, T/C is less than 90%. Enter No if it equals or exceeds that cut-off.

Consider the worked cases shown below.
COMPOUND: CCCS(=O)(=O)Nc1ccc(F)c(C(=O)c2c[nH]c3ncc(-c4ccc(Cl)cc4)cc23)c1F + COC1C(OC(N)=O)C(O)C(Oc2ccc3c(O)c(NC(=O)c4ccc(O)c(CC=C(C)C)c4)c(=O)oc3c2C)OC1(C)C
GROUP: No
--
COMPOUND: O=C(Nc1ccc(O)c(NS(=O)(=O)c2ccc(F)cc2)c1)c1ccc(-c2ccccc2)cc1 + Nc1ccc(C#CCN(C(=O)Cc2ncc(C(F)(F)F)cc2C(F)(F)F)c2ccc(F)cc2)nn1
GROUP: No
--
COMPOUND: CCCS(=O)(=O)Nc1ccc(F)c(C(=O)c2c[nH]c3ncc(-c4ccc(Cl)cc4)cc23)c1F + Nc1ccc(C#CCN(C(=O)Cc2ncc(C(F)(F)F)cc2C(F)(F)F)c2ccc(F)cc2)nn1
GROUP: No
--
COMPOUND: COc1cc2cc(C(=O)CCC(=O)O)sc2cc1OC + COC1C(OC(N)=O)C(O)C(Oc2ccc3c(O)c(NC(=O)c4ccc(O)c(CC=C(C)C)c4)c(=O)oc3c2C)OC1(C)C
GROUP: No
--
COMPOUND: CCc1cc2c(N3CCc4c(cc(Cn5ccnc5)cc4-c4cn(C)nc4C(F)(F)F)C3=O)ccnc2c(OC)n1 + Nc1ccc(C#CCN(C(=O)Cc2ncc(C(F)(F)F)cc2C(F)(F)F)c2ccc(F)cc2)nn1
GROUP: Yes
--
COMPOUND: CC1COCCN1c1cc(C2(O)CC3CCC(C2)O3)c2cnn(-c3ccn[nH]3)c2n1 (stereo not given) + COC1C(OC(N)=O)C(O)C(Oc2ccc3c(O)c(NC(=O)c4ccc(O)c(CC=C(C)C)c4)c(=O)oc3c2C)OC1(C)C
GROUP: Yes
--
COMPOUND: CCc1c2c(nc3ccc(O)cc13)-c1cc3c(c(=O)n1C2)COC(=O)[C@]3(O)CC + COC1C(OC(N)=O)C(O)C(Oc2ccc3c(O)c(NC(=O)c4ccc(O)c(CC=C(C)C)c4)c(=O)oc3c2C)OC1(C)C
GROUP: Yes
--
COMPOUND: COc1cc(C2c3cc4c(cc3C(OC3OC5COC(C)OC5C(O)C3O)C3COC(=O)C23)OCO4)cc(OC)c1O (stereo not given) + Cc1cccc(N(C)C(=O)C2C(O)CCN2c2nc(C)cc(C(F)(F)F)c2C#N)c1
GROUP: Yes

--- query ---
INPUT: Is it true that viability, T/C reported for C=CC(=O)N1CCN(c2nc(=O)n(-c3c(C)ccnc3C(C)C)c3nc(-c4c(O)cccc4F)c(F)cc23)C(C)C1 (stereo not given) + COC1C(OC(N)=O)C(O)C(Oc2ccc3c(O)c(NC(=O)c4ccc(O)c(CC=C(C)C)c4)c(=O)oc3c2C)OC1(C)C is less than 90%?
OUTPUT: Yes

----------
# Test system: 926638-142-R-J1-PDC complex spheroid viability
# ASSAY COMMENT: Anticancer human tumor 926638-142-R-J1-PDC cell line growth inhibition [POLQ];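 further: spheroids exposed to drugs for one week before readout; percent viability relative to DMSO vehicle control wells set as 100%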
# STUDY CONDITIONS: second compound 3.16 µM; first compound 0.1 µM; active compounds read low
Please go through the items and note down their viability, T/C.
Numbers only, in %.

The examples below pair each entry with its known result.
COMPOUND: COc1cccc(OCCCN)c1-c1cc(Nc2cnc(C#N)cn2)n[nH]1 + Cc1cccc(N(C)C(=O)C2C(O)CCN2c2nc(C)cc(C(F)(F)F)c2C#N)c1
MEASURED: 49.2
//
COMPOUND: CC1COCCN1c1cc(-c2ccnn2C)c2ccnc(-c3ccn[nH]3)c2n1 (centres undefined) + Cc1cccc(N(C)C(=O)C2C(O)CCN2c2nc(C)cc(C(F)(F)F)c2C#N)c1
MEASURED: 77.7
//
COMPOUND: CNCc1ccc(-c2[nH]c3cc(F)cc4c3c2CCNC4=O)cc1 + COC1C(OC(N)=O)C(O)C(Oc2ccc3c(O)c(NC(=O)c4ccc(O)c(CC=C(C)C)c4)c(=O)oc3c2C)OC1(C)C
MEASURED: 93.9

For each of the compounds below, state viability, T/C.
1. Cn1ncnc1[C@H]1c2n[nH]c(=O)c3cc(F)cc(c23)N[C@@H]1c1ccc(F)cc1 + Cc1cccc(N(C)C(=O)C2C(O)CCN2c2nc(C)cc(C(F)(F)F)c2C#N)c1
2. O=c1[nH]cc(F)c(=O)[nH]1 + COC1C(OC(N)=O)C(O)C(Oc2ccc3c(O)c(NC(=O)c4ccc(O)c(CC=C(C)C)c4)c(=O)oc3c2C)OC1(C)C
3. COc1ccc([C@@H](O)c2cc(-c3ncnc4cc(N5CCOCC5)ccc34)c(F)cc2Cl)nn1 + Nc1ccc(C#CCN(C(=O)Cc2ncc(C(F)(F)F)cc2C(F)(F)F)c2ccc(F)cc2)nn1
4. CC1COCCN1c1cc(C2(O)CC3CCC(C2)O3)c2cnn(-c3ccn[nH]3)c2n1 (centres undefined) + COC1C(OC(N)=O)C(O)C(Oc2ccc3c(O)c(NC(=O)c4ccc(O)c(CC=C(C)C)c4)c(=O)oc3c2C)OC1(C)C
5. CC1COCCN1c1cc(C2(S(C)(=N)=O)CC2)nc(-c2ccnc3[nH]ccc23)n1 (centres undefined) + COC1C(OC(N)=O)C(O)C(Oc2ccc3c(O)c(NC(=O)c4ccc(O)c(CC=C(C)C)c4)c(=O)oc3c2C)OC1(C)C

OUTPUT:
1. 76.8
2. 85.9
3. 75.8
4. 77.7
5. 106

INPUT: For the compound shown here, CCCS(=O)(=O)Nc1ccc(F)c(C(=O)c2c[nH]c3ncc(-c4ccc(Cl)cc4)cc23)c1F + COC1C(OC(N)=O)C(O)C(Oc2ccc3c(O)c(NC(=O)c4ccc(O)c(CC=C(C)C)c4)c(=O)oc3c2C)OC1(C)C , give the reported viability, T/C.
OUTPUT: 92.3

----------
# Test system: 926638-142-R-J1-PDC complex spheroid viability
# ASSAY COMMENT: Anticancer human tumor 926638-142-R-J1-PDC cell line growth inhibition [POLQ];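 further: spheroids exposed to drugs for one week before readout; percent viability relative to DMSO vehicle control wells set as 100%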
# STUDY CONDITIONS: second compound 3.16 µM; first compound 0.1 µM; active compounds read low
Please go through the items and note down their viability, T/C.

The examples below pair each entry with its known result.
COMPOUND: CC1COCCN1c1cc(C2(O)CC3CCC(C2)O3)c2cnn(-c3ccn[nH]3)c2n1 (stereo not given) + Nc1ccc(C#CCN(C(=O)Cc2ncc(C(F)(F)F)cc2C(F)(F)F)c2ccc(F)cc2)nn1
TGT: 926638-142-R-J1-PDC complex spheroid viability
viability, T/C: 69%
--
COMPOUND: COc1cccc2c1C(=O)c1c(O)c3c(c(O)c1C2=O)CC(O)(C(=O)CO)CC3OC1CC(N)C(O)C(C)O1 (stereo not given) + Nc1ccc(C#CCN(C(=O)Cc2ncc(C(F)(F)F)cc2C(F)(F)F)c2ccc(F)cc2)nn1
TGT: 926638-142-R-J1-PDC complex spheroid viability
viability, T/C: 54.4%
--
COMPOUND: CC1COCCN1c1cc(C2(S(C)(=N)=O)CC2)nc(-c2ccnc3[nH]ccc23)n1 (stereo not given) + Nc1ccc(C#CCN(C(=O)Cc2ncc(C(F)(F)F)cc2C(F)(F)F)c2ccc(F)cc2)nn1
TGT: 926638-142-R-J1-PDC complex spheroid viability
viability, T/C: 98.9%
--
COMPOUND: C=CCn1c(=O)c2cnc(Nc3ccc(N4CCN(C)CC4)cc3)nc2n1-c1cccc(C(C)(C)O)n1 + COC1C(OC(N)=O)C(O)C(Oc2ccc3c(O)c(NC(=O)c4ccc(O)c(CC=C(C)C)c4)c(=O)oc3c2C)OC1(C)C
TGT: 926638-142-R-J1-PDC complex spheroid viability
viability, T/C: 70.9%
--
COMPOUND: Cn1ncnc1[C@H]1c2n[nH]c(=O)c3cc(F)cc(c23)N[C@@H]1c1ccc(F)cc1 + Nc1ccc(C#CCN(C(=O)Cc2ncc(C(F)(F)F)cc2C(F)(F)F)c2ccc(F)cc2)nn1
TGT: 926638-142-R-J1-PDC complex spheroid viability
viability, T/C: 71.2%

For each of the compounds below, state viability, T/C.
1. COc1cccc2c1C(=O)c1c(O)c3c(c(O)c1C2=O)CC(O)(C(=O)CO)CC3OC1CC(N)C(O)C(C)O1 (stereo not given) + COC1C(OC(N)=O)C(O)C(Oc2ccc3c(O)c(NC(=O)c4ccc(O)c(CC=C(C)C)c4)c(=O)oc3c2C)OC1(C)C
2. Nc1ccn(C2OC(CO)C(O)C2(F)F)c(=O)n1 (stereo not given) + Cc1cccc(N(C)C(=O)C2C(O)CCN2c2nc(C)cc(C(F)(F)F)c2C#N)c1
3. COc1cc(C2c3cc4c(cc3C(OC3OC5COC(C)OC5C(O)C3O)C3COC(=O)C23)OCO4)cc(OC)c1O (stereo not given) + Cc1cccc(N(C)C(=O)C2C(O)CCN2c2nc(C)cc(C(F)(F)F)c2C#N)c1
4. COc1cccc2c1C(=O)c1c(O)c3c(c(O)c1C2=O)CC(O)(C(=O)CO)CC3OC1CC(N)C(O)C(C)O1 (stereo not given) + Cc1cccc(N(C)C(=O)C2C(O)CCN2c2nc(C)cc(C(F)(F)F)c2C#N)c1
5. CCc1c2c(nc3ccc(O)cc13)-c1cc3c(c(=O)n1C2)COC(=O)[C@]3(O)CC + Cc1cccc(N(C)C(=O)C2C(O)CCN2c2nc(C)cc(C(F)(F)F)c2C#N)c1

OUTPUT:
1. 61.1%
2. 63.6%
3. 71.8%
4. 54.8%
5. 21.1%
